assay-system: Human Thrombocytes
procedure-text: Fibrinogen binding to human thrombocytes (fibrinogen binding test)
experimental-parameters: *: 125I fibrinogen replaced by 3H-(3S,5S)-5-[(amidino-biphenylyl)-oxymethyl]-carboxymethyl-pyrrolidinone ligand; read-out: Fibrinogen binding test IC50 (values marked *)
Counter-ions that a name gives are not always drawn.
observation-type: IC50 (nM)

Solved cases below.
NCc1ccc(-c2nc3cc(C(=O)NCCC(=O)O)ccc3n2CCCN2CCSCC2)cc1 [1(137)]: 1800
CN(CC(=O)O)c1cc2c(cc1C(=O)NCCC(=O)O)nc(-c1ccc(C(=N)N)cc1)n2C [1(140)]: 220

a. COC(=O)CCNC(=O)c1cc2nc(-c3ccc(C(=N)N)cc3)n(C)c2cc1N(C)CC(=O)OC [3(124)]
b. N=C(N)c1ccc(-c2nc3cc(C(=O)NCCC(=O)O)ccc3n2Cc2ccccc2)cc1 [1(62)]
[in] Identify the entry with the smaller IC50: a or b . # reply format: chosen label
[out] b

1. N=C(N)c1ccc(-c2nc3cc(C(=O)NCCC(=O)O)ccc3n2CCCN2CCSCC2)cc1 [1(73)]
2. COc1ccc(CCn2c(-c3ccc(C(=N)N)cc3)nc3cc(C(=O)NCCC(=O)O)ccc32)cc1OC [17(2)]
[in] Identify the entry with the smaller IC50: 1 or 2 . # reply format: chosen label
[out] 2
(2: 22 nM, 1: 49 nM)

P. CCCCCCCCCCCCCCn1c(-c2ccc(CN)cc2)nc2cc(C(=O)NCCC(=O)O)ccc21 [17(4)]
Q. N=C(N)c1ccc(-c2nc3cc(C(=O)NCCC(=O)OCC4CCCCC4)ccc3n2CCCCc2ccccc2)cc1 [13(6), dihydrochloride]
R. COC(=O)CCCn1c(-c2ccc(C(=N)N)cc2)nc2cc(C(=O)NCCC(=O)OC)ccc21 [3(120)]
S. N=C(N)c1ccc(-c2nc3cc(C(=O)NCCC(=O)O)ccc3n2CCc2cc(Br)c(N)c(Br)c2)cc1 [17(8)]
[in] Order the records, beginning with the lowest IC50 and ending with the highest. // list labels; follow requested order
[out] S, Q, R, P
